Assay: Phase I open-label drug-drug interaction study: single-dose plasma pharmacokinetics of compound 1 before and after repeat doses of rifampicin
Assay type: in vivo, human
Settings: male, human, plasma; single oral 600 mg, before multiple rifampin doses (Day 1), N = 18, median
Endpoint Label: Tmax (h)
Give bare numbers, in h.

For the compound "CCc1nc2c(C)cc(N3CCN(CC(=O)N4CC(O)C4)CC3)cn2c1N(C)c1nc(-c2ccc(F)cc2)c(C#N)s1" , what Tmax is on record?
2

---

Test: Phase I open-label drug-drug interaction study: single-dose plasma pharmacokinetics of compound 1 before and after repeat doses of rifampicin
Format: in vivo, human
Details: male, human, plasma, po, 600 mg, single oral 600 mg, before multiple rifampin doses (Day 1), N = 18, arithmetic mean; read-out: AUC0-t
Endpoint Label: AUC(0-t) (ng·h/mL)
Answers are plain numbers, in ng·h/mL.

Query: AUC(0-t); subject: CCc1nc2c(C)cc(N3CCN(CC(=O)N4CC(O)C4)CC3)cn2c1N(C)c1nc(-c2ccc(F)cc2)c(C#N)s1 [Compound 1]
36300

---

Assay: Phase I open-label drug-drug interaction study: single-dose plasma pharmacokinetics of compound 1 before and after repeat doses of rifampicin
Type: in vivo, human
Settings: male, human, plasma, po, 600 mg, healthy male subjects, single oral 600 mg compound 1, before multiple rifampin doses (Day 1), N = 18, arithmetic mean
Endpoint Label: Cmax (ng/mL)
Give bare numbers, in ng/mL.

Entry "CCc1nc2c(C)cc(N3CCN(CC(=O)N4CC(O)C4)CC3)cn2c1N(C)c1nc(-c2ccc(F)cc2)c(C#N)s1" : reported Cmax = ?
8660

---

Experiment: Phase I open-label drug-drug interaction study: single-dose plasma pharmacokinetics of compound 1 before and after repeat doses of rifampicin
Format: in vivo, human
Conditions: male, human, plasma, po, 600 mg, single oral 600 mg, after multiple rifampin doses (Day 12), N = 18, arithmetic mean; read-out: AUC0-t
Endpoint Label: AUC(0-t) (ng·h/mL)
One number for each entry, in ng·h/mL.

Quick check: AUC(0-t) of CCc1nc2c(C)cc(N3CCN(CC(=O)N4CC(O)C4)CC3)cn2c1N(C)c1nc(-c2ccc(F)cc2)c(C#N)s1 [Compound 1] ?
3570

---

Test: Phase I open-label drug-drug interaction study: single-dose plasma pharmacokinetics of compound 1 before and after repeat doses of rifampicin
Assay type: in vivo, human
Conditions: male, human, plasma; single oral 600 mg, before multiple rifampin doses (Day 1), N = 18, arithmetic mean; read-out: C24h
Endpoint Label: concentration at 24 h (ng/mL)
Numbers only, in ng/mL.

Query: concentration at 24 h; subject: "CCc1nc2c(C)cc(N3CCN(CC(=O)N4CC(O)C4)CC3)cn2c1N(C)c1nc(-c2ccc(F)cc2)c(C#N)s1"
83.4

---

Assay: Phase I open-label drug-drug interaction study: single-dose plasma pharmacokinetics of compound 1 before and after repeat doses of rifampicin
Format: in vivo, human
Details: male, human, plasma; single oral 600 mg, after multiple rifampin doses (Day 12), N = 18, arithmetic mean; read-out: C24h
Protocol: A phase I, open-label, non-randomized, drug-drug interaction study in healthy male subjects is done to evaluate the impact of repeat doses of rifampicin, on the single-dose pharmacokinetics (PK) of compound 1 as well as to evaluate the safety and tolerability of a single dose of compound 1 administered before or after oral doses of rifampicin. Eighteen healthy male subjects received a single oral dose of 600 mg compound 1 on Day 1. […]
Endpoint Label: concentration at 24 h (ng/mL)
Answers are plain numbers, in ng/mL.

Using the record for CCc1nc2c(C)cc(N3CCN(CC(=O)N4CC(O)C4)CC3)cn2c1N(C)c1nc(-c2ccc(F)cc2)c(C#N)s1 [Compound 1] , report its concentration at 24 h.
1.69
